Reference source for all entries: ChEMBL document CHEMBL1781989

- System: Mus musculus
- Protocol text: Antiinflammatory activity in ICR mouse assessed as inhibition of xylene-induced ear edema at 0.15 mmol/kg, po administered 30 mins before xylene challenge measured after 2 hrs relative to control
- Assay type: functional
Non-standard residues stand in square brackets, D forms with d. Residues, ends and D or L forms follow the SMILES beside them. Tpi = O=C(O)[C@@H]1Cc2c([nH]c3ccccc23)CN1
Below: a set of entries, each annotated with reported inhibition in vivo at 150 µmol/kg.
Quantity kind: inhibition in vivo at 150 µmol/kg (%)

| Compound | Unit of measurement | Assay value |
| --- | --- | --- |
| O=C(O)[C@H](Cc1c[nH]c2ccccc12)NC(=O)[C@H](Cc1ccccc1)NC(=O)[C@H](Cc1ccccc1)NC(=O)[C@@H]1Cc2c([nH]c3ccccc23)CN1 (H-[Tpi]FFW-OH) | % | 48.2 |
| CC(C)C[C@H](NC(=O)[C@@H]1Cc2c([nH]c3ccccc23)CN1)C(=O)N[C@@H](Cc1ccccc1)C(=O)N[C@@H](Cc1c[nH]c2ccccc12)C(=O)O (H-[Tpi]LFW-OH) | % | 60.7 |
| NCCCC[C@H](NC(=O)[C@@H]1Cc2c([nH]c3ccccc23)CN1)C(=O)N[C@@H](Cc1ccccc1)C(=O)N[C@@H](Cc1c[nH]c2ccccc12)C(=O)O (H-[Tpi]KFW-OH) | % | 55.2 |
| O=C(O)CC[C@H](NC(=O)[C@@H]1Cc2c([nH]c3ccccc23)CN1)C(=O)N[C@@H](Cc1ccccc1)C(=O)N[C@@H](Cc1c[nH]c2ccccc12)C(=O)O (H-[Tpi]EFW-OH) | % | 28.4 |
| O=C(CNC(=O)[C@@H]1Cc2c([nH]c3ccccc23)CN1)N[C@@H](Cc1ccccc1)C(=O)N[C@@H](Cc1c[nH]c2ccccc12)C(=O)O (H-[Tpi]GFW-OH) | % | 37.5 |
| O=C(O)[C@H](Cc1c[nH]c2ccccc12)NC(=O)[C@H](Cc1ccccc1)NC(=O)[C@@H]1CCCN1C(=O)[C@@H]1Cc2c([nH]c3ccccc23)CN1 (H-[Tpi]PFW-OH) | % | 47.3 |
| O=C(O)[C@H](Cc1c[nH]c2ccccc12)NC(=O)[C@H](Cc1ccccc1)NC(=O)[C@H](Cc1ccc(O)cc1)NC(=O)[C@@H]1Cc2c([nH]c3ccccc23)CN1 (H-[Tpi]YFW-OH) | % | 50.9 |
